Molecular target: Prostaglandin E2 receptor EP2 subtype (Homo sapiens)
Test: compounds shifting PGE2 potency at EP2 – cell-based, human EP2, PGE2 EC50 shift, dose response (AID 1421)
Settings: EP2-expressing cells, PGE2 EC50 shift by compound; at 20 µM
Out of some 1,300 compounds screened, about 140 (11%) were called active. Not all results are given here. Results with a measured potency or affinity are listed apart.
experimental endpoint: PGE2 EC50 with compound

-- ask PGE2 EC50 with compound for `CNC(=O)NC(=O)CSc1nc(-c2cccs2)c(C#N)c(=O)[nH]1` ?
-- reply 15.8 nM (inactive)

-- ask Recorded PGE2 EC50 with compound of `CS(=O)(=O)N(Cc1ccccc1)c1ccccc1C(=O)Nc1ccccc1C(=O)NCc1ccco1` , please.
-- reply 56.6 nM (inactive)

-- ask # PGE2 EC50 with compound lookup, item `COC(=O)CSc1nc(-c2ccccc2)nc2ccccc12`
-- reply 0.22 nM (inactive)

-- ask Quick check: PGE2 EC50 with compound of `N#Cc1sc2nc(N3CCCCC3)c3c(c2c1N)CCCC3` ?
-- reply 0.26 nM (inactive)

-- ask # lookup: PGE2 EC50 with compound of `CCOC(=O)C1=C(C)N(C)C(C)=C(C(=O)OCC)C1c1ccccc1`
-- reply 0.51 nM (inactive)

-- ask Query (molecule): `N/C(CSc1nc(-c2ccccc2)c(-c2ccccc2)o1)=N\O` ; field requested: PGE2 EC50 with compound
-- reply 0.37 nM (inactive)

-- ask Fill in: PGE2 EC50 with compound of `COc1cc(-c2noc(-c3cccc(Cl)c3)n2)cc(OC)c1OC` is ___
-- reply 0.47 nM (inactive)

-- ask Fill in: PGE2 EC50 with compound of `O=C(O)CSc1cc(-c2ccccc2)nc2ccccc12` is ___
-- reply 1.19 nM (inactive)

-- ask Need PGE2 EC50 with compound, item `COc1ccc(-c2noc(-c3ccccc3-c3ccccc3)n2)cc1OC`
-- reply 0.17 nM (inactive)

-- ask So what's the measured PGE2 EC50 with compound for this one? `CCCCc1nc(SCCOC)c2c(=O)n(C)c(=O)n(C)c2n1`
-- reply 0.46 nM (inactive)

-- ask Entry under review: `Brc1cccc(-c2nnc(SCc3ccon3)n2-c2ccccc2)c1` . Reported PGE2 EC50 with compound?
-- reply 0.48 nM (inactive)

-- ask Need PGE2 EC50 with compound of `Cn1c(/C=C/N(Cc2ccccc2)c2ccccc2)c([N+](=O)[O-])c(=O)n(C)c1=O` , thanks.
-- reply 0.45 nM (inactive)

-- ask GET /values?readout=PGE2 EC50 with compound&item= `CCOC(=O)c1c(-c2cccs2)csc1NC(=O)CN1CCOCC1`
-- reply 2.48 nM (inactive)

-- ask Requested field: PGE2 EC50 with compound. Item: `Cc1cccc(/C=N/Nc2cc(N3CCOCC3)nc(N3CCOCC3)n2)c1`
-- reply 0.59 nM (inactive)

-- ask Quick one: PGE2 EC50 with compound of `c1ccc(-c2noc(-c3ccccc3-c3ccccc3)n2)cc1` ?
-- reply 0.5 nM (inactive)

-- ask Please report the recorded PGE2 EC50 with compound for CC(/C=C1\SC(=S)N(C(C(=O)O)C(C)C)C1=O)=C\c1ccccc1 (stereo not drawn) .
-- reply 1.95 nM (inactive)

-- ask Suppose we examine the molecule `COC(=O)c1c(NC(=O)CSc2nnc(-c3ccco3)n2Cc2ccccc2)sc(C)c1C` ; what PGE2 EC50 with compound value has been reported?
-- reply 0.82 nM (inactive)

-- ask # lookup: PGE2 EC50 with compound of `NC(=O)c1sc2nc(N3CCCCC3)c3c(c2c1N)CCCC3`
-- reply 0.08 nM (inactive)

-- ask Fill blank: measured PGE2 EC50 with compound of the molecule `COc1ccc2c(-c3ccccc3)cc(N3CCOCC3)nc2c1` is ____.
-- reply 0.43 nM (inactive)

-- ask Which measured PGE2 EC50 with compound value corresponds to `COc1ccc(CCN(Cc2nc(-c3ccccc3)no2)Cc2nc(-c3ccccc3)no2)cc1OC` ?
-- reply 0.49 nM (inactive)

-- ask Param item = `CCc1cc2cc3c(cc2nc1SCC(=O)OC(C)C)OCO3` ; retrieve measured PGE2 EC50 with compound.
-- reply 0.14 nM (inactive)

-- ask Which value of PGE2 EC50 with compound has been reported for `c1ccc(-c2csc3ncnc(N4CCc5ccccc5C4)c23)cc1` in the records?
-- reply 0.28 nM (inactive)

-- ask # input molecule: CCOC(=O)C1=CN(CC2CCCO2)C=C(C(=O)OCC)C1c1ccccc1C(F)(F)F (stereo not drawn) ; wanted: its PGE2 EC50 with compound
-- reply 0.31 nM (inactive)

* * *

Molecular target: Prostaglandin E2 receptor EP2 subtype (Homo sapiens) (UniProt P43116)
Sequence (P43116 whole entry, looked up): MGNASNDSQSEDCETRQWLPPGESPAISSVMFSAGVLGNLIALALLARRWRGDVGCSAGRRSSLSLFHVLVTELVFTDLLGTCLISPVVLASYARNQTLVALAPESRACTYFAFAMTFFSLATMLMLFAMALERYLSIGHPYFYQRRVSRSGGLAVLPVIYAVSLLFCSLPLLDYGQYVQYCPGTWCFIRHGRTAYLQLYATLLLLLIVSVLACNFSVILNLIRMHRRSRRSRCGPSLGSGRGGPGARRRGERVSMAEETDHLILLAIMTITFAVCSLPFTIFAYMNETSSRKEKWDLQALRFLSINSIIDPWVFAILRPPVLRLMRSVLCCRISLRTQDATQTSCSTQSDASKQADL
Experiment: compounds shifting PGE2 potency at EP2 – cell-based, human EP2, PGE2 EC50 shift, dose response (AID 1421)
Conditions: EP2-expressing cells, PGE2 EC50 shift by compound; at 20 µM
Hit rate of the full screen: of about 1,300 compounds, about 140 (11%) were called active. Not all results are given here. Results with a measured potency or affinity are listed apart.
Would you mind telling me the reported PGE2 EC50 with compound of each entry?

-- ask Endpoint output: PGE2 EC50 with compound of `CCOc1ccc(OCC)c(NC(=O)CN2CCN(c3cc(C)ccc3C)CC2)c1` . Value?
-- reply 0.45 nM (inactive)

-- ask Which PGE2 EC50 with compound reading was recorded for the molecule `Cc1noc(C)c1CSc1nc2ccccc2c(=O)n1-c1ccc(Cl)cc1` ?
-- reply 0.51 nM (inactive)

-- ask Which value of PGE2 EC50 with compound has been reported for `CN(C)c1nc(-c2ccccc2)c2cnn(Cc3ccccc3)c2n1` in the records?
-- reply 0.17 nM (inactive)

-- ask Requested read-out: PGE2 EC50 with compound. Entry: `O=c1c2ccccc2c(=O)n(Cc2ccccc2)n1Cc1ccccc1`
-- reply 0.08 nM (inactive)

-- ask Requested field: PGE2 EC50 with compound. Item: `CCOC(=O)Cn1c(=S)[nH]c2c(oc3ccc(Cl)cc32)c1=O`
-- reply 6.72 nM (inactive)

-- ask Data request, read-out PGE2 EC50 with compound, for CCCCC(CC)CN1CN(CC(CC)CCCC)CC(C)(N)C1 (configuration not stated)
-- reply 0.75 nM (inactive)

-- ask Reported PGE2 EC50 with compound, molecule `COc1ccc(Cc2n[nH]c(=S)n2Cc2ccccc2)cc1Cl` : ____
-- reply 0.57 nM (inactive)

-- ask What value of PGE2 EC50 with compound has been reported for the following molecule? `CCc1ccc2[nH]c(=O)c(CN(Cc3nnnn3C3CCCC3)C3CCCCC3)cc2c1`
-- reply 0.64 nM (inactive)

-- ask Query (molecule): `CC(C)n1c2ccccc2c2nc3ccccc3nc21` ; field requested: PGE2 EC50 with compound
-- reply 0.41 nM (inactive)

-- ask Which PGE2 EC50 with compound is listed for `C#CCSc1nc(Cc2ccc(Cl)cc2)nc2ccccc12` ?
-- reply 0.25 nM (inactive)

-- ask Dear colleague, I am looking for the recorded PGE2 EC50 with compound of the following molecule: `COc1ccc(C(=O)NCCCN2CCOCC2)cc1OC`
-- reply 0.55 nM (inactive)

-- ask Find the recorded PGE2 EC50 with compound belonging to `CCn1c2ccccc2c2nc3ccccc3nc21` and report it.
-- reply 0.63 nM (inactive)

* * *

Assignment: determine reported PGE2 EC50 with compound for the given molecules.
Molecular target: Prostaglandin E2 receptor EP2 subtype (Homo sapiens) (UniProt P43116)
Assay: compounds shifting PGE2 potency at EP2 – cell-based, human EP2, PGE2 EC50 shift, dose response (AID 1421)
Details: EP2-expressing cells, PGE2 EC50 shift by compound; at 20 µM
Among all 1,300 compounds or so, about 140 (11%) were called active. These entries were drawn from the full list. Measured potencies and affinities stand elsewhere.

-- ask Which PGE2 EC50 with compound is reported for this molecule? `CCCCC(=O)Nc1sc2c(c1C(=O)OCC)CCC(C=O)=C2Cl`
-- reply 1.75 nM (inactive)

-- ask Which PGE2 EC50 with compound value is on record for `O=C(COc1ccc(Br)cc1)Nc1ccc(-c2nnc(-c3ccco3)o2)cc1` ?
-- reply 0.53 nM (inactive)

-- ask What does the data say about its PGE2 EC50 with compound? Entry: `CCOc1cc(/C=N/NC(N)=O)ccc1OC(=O)c1ccc(C)cc1`
-- reply 0.42 nM (inactive)

-- ask Can you share its PGE2 EC50 with compound? I mean this molecule: CCOC(=O)C1=C(CC)OC(N)=C(C#N)C1c1ccsc1 (stereo unspecified)
-- reply 0.52 nM (inactive)

-- ask Consider the molecule shown here: `CCCC/C(=N\NC(=O)c1ccc(Br)o1)c1ccccc1` What is its recorded PGE2 EC50 with compound?
-- reply 0.6 nM (inactive)

-- ask Query (molecule): CC(=O)N(c1cccc(Br)c1)C1C=CS(=O)(=O)C1 (stereo unspecified) ; field requested: PGE2 EC50 with compound
-- reply 0.92 nM (inactive)

-- ask Sample `Cc1cc(SCC(=O)NCCC2=CCCCC2)nc2ccccc12` — what was its PGE2 EC50 with compound?
-- reply 0.21 nM (inactive)

-- ask Given the molecule `CCCCc1n[nH]c(=S)n1Cc1ccc(Cl)cc1` , what is its reported PGE2 EC50 with compound?
-- reply 0.62 nM (inactive)

-- ask What does the data say about its PGE2 EC50 with compound? Entry: CCC(=O)Oc1ccc(C(CC)C(CC)c2ccc(OC(=O)CC)cc2)cc1 (stereo unspecified)
-- reply 0.53 nM (inactive)

-- ask What value of measured PGE2 EC50 with compound is listed for CCC1CCc2c(sc3ncnc(N4CCOCC4)c23)C1 (stereo unspecified) ?
-- reply 0.42 nM (inactive)

-- ask Dear colleague, I am looking for the recorded PGE2 EC50 with compound of the following molecule: `c1ccc(CCc2ccccc2-c2nc(-c3cccnc3)no2)cc1`
-- reply 0.18 nM (inactive)
